Source of measurements: patent US8269008B2

Quick list: inhibition at 22.22 µM per entry.
- Target: HIF-PH2 (EGLN1) (Homo sapiens, UniProt Q9GZT9)
- Construct: made in house; host or cells: insect Hi5 cells
- Sequence (Q9GZT9 whole entry, species assumed): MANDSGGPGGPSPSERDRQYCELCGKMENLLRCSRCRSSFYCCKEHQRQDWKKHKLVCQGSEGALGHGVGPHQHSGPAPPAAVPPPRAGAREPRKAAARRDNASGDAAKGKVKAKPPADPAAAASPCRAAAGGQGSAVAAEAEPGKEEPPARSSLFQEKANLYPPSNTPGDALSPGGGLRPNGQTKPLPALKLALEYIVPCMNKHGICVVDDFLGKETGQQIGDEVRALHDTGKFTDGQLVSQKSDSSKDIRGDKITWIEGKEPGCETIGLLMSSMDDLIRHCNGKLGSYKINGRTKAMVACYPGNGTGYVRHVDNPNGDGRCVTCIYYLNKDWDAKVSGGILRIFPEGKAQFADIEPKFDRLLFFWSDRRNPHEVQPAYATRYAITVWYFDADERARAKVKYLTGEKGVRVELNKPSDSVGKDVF
- Method notes: HIF-PH assay (14CO2 capture, peptide-dependent turnover)
- Type: biochemical
- Experimental parameters: Concentration 22.22 μM
- Method: Ketoglutaric acid α-[1-^14C]-sodium salt, alpha-ketoglutaric acid sodium salt, and HPLC purified peptide may be obtained from commercial sources, e.g., Perkin-Elmer (Wellesley Mass.), Sigma-Aldrich, and SynPep Corp. (Dublin Calif.), respectively. […] Enzyme activity is determined by capturing ^14CO2 using an assay described by Kivirikko and Myllyla (1982, Methods Enzymol. 82:245-304). […]

Mol smiles	inhibition at 22.22 µM
COc1ccc(-c2noc3c(C)nc(C(=O)NCC(=O)O)c(O)c23)cc1	94.4%
N#Cc1nc(C(=O)NCC(=O)O)c(O)c2c(-c3ccccc3)noc12	98.5%
Cc1nc(C(=O)NCC(=O)O)c(O)c2c(-c3ccc(F)cc3)noc12	93.8%
O=C(O)CNC(=O)c1ncc2onc(-c3ccc(Cl)cc3Cl)c2c1O	98%
Cc1noc2c(-c3ccccc3)nc(C(=O)NCC(=O)O)c(O)c12	97.5%
O=C(O)CNC(=O)c1ncc2onc(-c3c(F)cccc3Cl)c2c1O	88.2%
O=C(O)CNC(=O)c1ncc2onc(-c3ccc(Cl)cc3)c2c1O	98.8%
O=C(O)CNC(=O)c1nc(C#Cc2ccccc2)c2c(-c3ccccc3)noc2c1O	98.6%
O=C(O)CNC(=O)c1nc(Br)c2onc(-c3ccccc3)c2c1O	99.4%

###

- Target: HIF-PH2 (EGLN1) (Homo sapiens)
- Construct: made in house; host or cells: insect Hi5 cells
- Method notes: HIF-PH assay (14CO2 capture, peptide-dependent turnover)
- Format: biochemical
- Experimental parameters: Concentration 22.22 μM

Mol smiles	Target	inhibition at 22.22 µM
CS(=O)(=O)c1ccc(-c2noc3cnc(C(=O)NCC(=O)O)c(O)c23)cc1	HIF-PH2 (EGLN1) (Homo sapiens)	99.4%
COc1ccc(-c2noc3cnc(C(=O)NCC(=O)O)c(O)c23)cc1	HIF-PH2 (EGLN1) (Homo sapiens)	97.9%
Cc1nc(C(=O)NCC(=O)O)c(O)c2c(C)noc12	HIF-PH2 (EGLN1) (Homo sapiens)	94.6%
N#Cc1cccc(-c2noc3cnc(C(=O)NCC(=O)O)c(O)c23)c1	HIF-PH2 (EGLN1) (Homo sapiens)	98.4%
O=C(O)CNC(=O)c1ncc2onc(-c3ccccc3OC(F)(F)F)c2c1O	HIF-PH2 (EGLN1) (Homo sapiens)	86.3%
O=C(O)CNC(=O)c1nc(C(F)(F)F)c2onc(-c3ccccc3)c2c1O	HIF-PH2 (EGLN1) (Homo sapiens)	97.8%
O=C(O)CNC(=O)c1nc(-c2ccncc2)c2onc(-c3ccccc3)c2c1O	HIF-PH2 (EGLN1) (Homo sapiens)	98.5%
O=C(O)CNC(=O)c1nc(Br)c2onc(-c3ccc(F)cc3)c2c1O	HIF-PH2 (EGLN1) (Homo sapiens)	98.7%
O=C(O)CNC(=O)c1nc(-c2ccccn2)c2onc(-c3ccccc3)c2c1O	HIF-PH2 (EGLN1) (Homo sapiens)	99.6%

###

- Target: HIF-PH2 (EGLN1) (Homo sapiens, UniProt Q9GZT9)
- Construct: made in house; host or cells: insect Hi5 cells
- Method notes: HIF-PH assay (14CO2 capture, peptide-dependent turnover)
- Format: biochemical
- Experimental parameters: Concentration 200.00 μM
Quick list: inhibition at 200 µM per entry.

Compound	inhibition at 200 µM (%)
C[C@@H](NC(=O)c1ncc2c(-c3ccccc3)noc2c1O)C(=O)O [Example 44]	82.2
O=C(O)CNC(=O)c1nc(Cc2ccccc2)c2c(-c3ccccc3)noc2c1O [Example 62]	100
N#Cc1nc(C(=O)NCC(=O)O)c(O)c2onc(-c3ccc(F)cc3)c12 [Example 52]	98.6
O=C(O)CNC(=O)c1ncc2c(C3=CCCCC3)noc2c1O [Example 65]	100
COc1ccc(-c2noc3c(O)c(C(=O)NCC(=O)O)ncc23)cc1 [Example 46]	99.4
O=C(O)CNC(=O)c1ncc2c(-c3ccc(F)cc3)noc2c1O [Example 45]	98.6
O=C(O)CNC(=O)c1nc(-c2ccccc2)c2nc(-c3ccccc3)oc2c1O [Example 5]	98.7
O=C(O)CNC(=O)c1ncc2oc(-c3ccccc3)nc2c1O [Example 9]	98.6
COc1ccc(-c2noc3c(O)c(C(=O)NCC(=O)O)nc(Cn4cccn4)c23)cc1 [Example 60]	100
O=C(O)CNC(=O)c1nc(C2CC2)c2c(-c3cccs3)noc2c1O [Example 59]	99.3
